Parameter: OD450. Scope: all listed entries.
# Measurement target: T1, human MSLN-R1-his protein (human, UniProt Q13421 296-390)
# T1 construct: also called human MSLN-R1 protein; hMSLN-R1-his; not shown: His tag
# T1 sequence (Q13421 other isoform, or with tags, fused parts or gaps): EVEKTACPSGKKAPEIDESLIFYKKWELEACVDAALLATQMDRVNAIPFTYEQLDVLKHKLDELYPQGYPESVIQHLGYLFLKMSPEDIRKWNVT
# Procedure summary: ELISA, coated antigen; antibody 10 nM
Only the number, expressed in OD450, is required.

Known OD450 results, listed for orientation:
Binder: S009-F4-127.10 (antibody, human IgG1, kappa, V domains shown, Human-murine chimeric antibody, human IgG1/kappa constant regions) VH: EVQLQQSGPVLVKPGASVKMSCKASGYTFTDYYMNWVKQSHGKSPEWIGVINPYNDVISYNQKFKGKATLTVDKSSSTAYMELNSLTSEDSAVYYCANYGSSYYAMDYWGQGTSVTVSS VL: DVVMTQTPLSLSVSLGDQASISCRSSQSLVHSNGNTYLQWSLQKPGQSPNLLIYKVSNRFSGVPDRFSGSGSGTDFTLKISRVEAEDLGVYFCSQTTHVPFTFGGGTKLEIRR
OD450 / OD450: 0.06
--
Binder: S009-F6-76.1 (antibody, human IgG1, kappa, V domains shown, Human-murine chimeric antibody, human IgG1/kappa constant regions) VH: QVQLQQSGPELVKPGASVKISCKASGYTFTDYYINWVKQRPGQGLEWIGWIFPGRGSTFYYEKFKGKATLTVDKSSSTAYMLLSSLTSEDSAVYFCARRGDSAGYEDLDYWGQGTSVTVSS VL: NIVMTQSPKFMSMSVGERVTLSCKASENVVTYVSWYQQKPKQSPKLLIYGASKRYTGVPDRFTGSGSATDFTLTISSVQAEDLGDYHCGQSYSYPYTFGGGTKLEIKR
OD450 / OD450: 0.04

Summary for this binder, S009-F4-94.15 (antibody, human IgG1, kappa, V domains shown, Human-murine chimeric antibody, human IgG1/kappa constant regions) VH: QVQLHQPGAELVRPGSSVKLSCKASGYTFTSYWVHWVQQRPRQGLEWIGNIDPSDSEIHYNQKFKDKATLTVDKSSSTAYIHLSRLTSEDSAIYYCVRGGVPWFAYWGQGTLVTVSA VL: QIVLTQSPAIMSASPGEKVTLTCSASSSVSSTYLYWFQQKPGSSPKVWIYSTSNLASGVPARFSGSGSGTSYSLTISSMEAEDAASYFCHQWISYPYTFGGGTKLEIKR : OD450 is 0.06

Summary for this binder, S009-F5-9.16 (antibody, human IgG1, kappa, V domains shown, Human-murine chimeric antibody, human IgG1/kappa constant regions) VH: EVQLRQSGPVLVKPGASVKMSCKASGYTFTDYFMNWVKPSHGKSLEWIGVINPSNGVINYNQRFKGKATLTVDKSSSTAYMELNSLTSEDSAVYYCARSYDFAWFAYWGQGTLVTVSA VL: DVLMTQTPLSLPVSLGDQASISCRSSQNIVHSNGNTYLEWYLQKPGQSPKLLIYTVSNRFSGVPDRFSGSGSGTDFTLKISRVEAEDLGVYYCFQGSHVPYTFGGGTKLEIKR : OD450 is 0.05

Reference source for all entries: patent US20250250357A1
